experiment: clinical; conditions: human, in vivo, iv, 15 mg, AUCinf, plasma, melflufen HCl 15 mg i.v. over 30 min
Endpoint label: AUC(0-inf) (ng·h/mL)
Lab book: enter the figure in ng·h/mL, no units written.

INPUT: Provide one value: measured AUC(0-inf) of N[C@@H](Cc1ccc(N(CCCl)CCCl)cc1)C(=O)O [melphalan, reference compound]
OUTPUT: 387

====

experiment: clinical; conditions: human, in vivo, iv, 40 mg, AUC0-4
Endpoint label: AUC(0-t) (ng·h/mL)
Lab book: enter the figure in ng·h/mL, no units written.

INPUT: Provide one value: measured AUC(0-t) of CCOC(=O)[C@H](Cc1ccc(F)cc1)NC(=O)[C@@H](N)Cc1ccc(N(CCCl)CCCl)cc1.Cl
OUTPUT: 89.3

====

assay: clinical; settings: human, in vivo, iv, 25 mg, T1/2
Endpoint label: half-life (min)
Lab book: enter the figure in min, no units written.

INPUT: Provide one value: measured half-life of CCOC(=O)[C@H](Cc1ccc(F)cc1)NC(=O)[C@@H](N)Cc1ccc(N(CCCl)CCCl)cc1.Cl [melflufen]
OUTPUT: 4.6

====

test: clinical; conditions: human, in vivo, iv, 15 mg, AUC0-4, plasma, melflufen HCl 15 mg i.v. over 30 min
Endpoint label: AUC(0-t) (ng·h/mL)
Lab book: enter the figure in ng·h/mL, no units written.

INPUT: Provide one value: measured AUC(0-t) of N[C@@H](Cc1ccc(N(CCCl)CCCl)cc1)C(=O)O [melphalan, reference compound]
OUTPUT: 332

====

experiment: clinical; conditions: human, in vivo, iv, 40 mg, T1/2
Endpoint label: half-life (min)
Lab book: enter the figure in min, no units written.

INPUT: Provide one value: measured half-life of CCOC(=O)[C@H](Cc1ccc(F)cc1)NC(=O)[C@@H](N)Cc1ccc(N(CCCl)CCCl)cc1.Cl [melflufen]
OUTPUT: 1.1

====

assay: clinical; settings: human, in vivo, iv, 25 mg, tmax
Endpoint label: tmax
Include the unit right after the number.

INPUT: Provide one value: measured tmax of CCOC(=O)[C@H](Cc1ccc(F)cc1)NC(=O)[C@@H](N)Cc1ccc(N(CCCl)CCCl)cc1.Cl
OUTPUT: 12 min

====

experiment: clinical; conditions: human, in vivo, iv, 40 mg, tmax
Endpoint label: tmax (min)
Lab book: enter the figure in min, no units written.

INPUT: Provide one value: measured tmax of CCOC(=O)[C@H](Cc1ccc(F)cc1)NC(=O)[C@@H](N)Cc1ccc(N(CCCl)CCCl)cc1.Cl
OUTPUT: 15

====

assay: clinical; conditions: human, in vivo, iv, 55 mg, T1/2
Endpoint label: half-life (min)
Lab book: enter the figure in min, no units written.

INPUT: Provide one value: measured half-life of CCOC(=O)[C@H](Cc1ccc(F)cc1)NC(=O)[C@@H](N)Cc1ccc(N(CCCl)CCCl)cc1.Cl [melflufen]
OUTPUT: 2.7

====

assay: clinical; conditions: human, in vivo, iv, 15 mg, T1/2
Endpoint label: half-life (min)
Lab book: enter the figure in min, no units written.

INPUT: Provide one value: measured half-life of CCOC(=O)[C@H](Cc1ccc(F)cc1)NC(=O)[C@@H](N)Cc1ccc(N(CCCl)CCCl)cc1.Cl
OUTPUT: 13

====

assay: clinical; conditions: human, in vivo, iv, 25 mg, AUC0-4
Endpoint label: AUC(0-t) (ng·h/mL)
Lab book: enter the figure in ng·h/mL, no units written.

INPUT: Provide one value: measured AUC(0-t) of CCOC(=O)[C@H](Cc1ccc(F)cc1)NC(=O)[C@@H](N)Cc1ccc(N(CCCl)CCCl)cc1.Cl [melflufen]
OUTPUT: 40.8

====

assay: clinical; conditions: human, in vivo, iv, 40 mg, AUCinf, plasma, melflufen HCl 40 mg i.v. over 30 min
Endpoint label: AUC(0-inf)
Include the unit right after the number.

INPUT: Provide one value: measured AUC(0-inf) of N[C@@H](Cc1ccc(N(CCCl)CCCl)cc1)C(=O)O [melphalan, reference compound]
OUTPUT: 835 ng·h/mL

====

assay: clinical; conditions: human, in vivo, iv, 40 mg, AUC0-4, plasma, melflufen HCl 40 mg i.v. over 30 min
Endpoint label: AUC(0-t)

INPUT: Provide one value: measured AUC(0-t) of N[C@@H](Cc1ccc(N(CCCl)CCCl)cc1)C(=O)O [melphalan, reference compound]
OUTPUT: 745 ng·h/mL

====

experiment: clinical; details: human, in vivo, iv, 15 mg, tmax
Endpoint label: tmax (min)
Lab book: enter the figure in min, no units written.

INPUT: Provide one value: measured tmax of CCOC(=O)[C@H](Cc1ccc(F)cc1)NC(=O)[C@@H](N)Cc1ccc(N(CCCl)CCCl)cc1.Cl
OUTPUT: 15

====

assay: clinical; conditions: human, in vivo, iv, 15 mg, AUCinf
Endpoint label: AUC(0-inf) (ng·h/mL)
Lab book: enter the figure in ng·h/mL, no units written.

INPUT: Provide one value: measured AUC(0-inf) of CCOC(=O)[C@H](Cc1ccc(F)cc1)NC(=O)[C@@H](N)Cc1ccc(N(CCCl)CCCl)cc1.Cl [melflufen]
OUTPUT: 16.3

====

experiment: clinical; conditions: human, in vivo, iv, 40 mg, Cmax
Endpoint label: Cmax (ng/mL)
Lab book: enter the figure in ng/mL, no units written.

INPUT: Provide one value: measured Cmax of CCOC(=O)[C@H](Cc1ccc(F)cc1)NC(=O)[C@@H](N)Cc1ccc(N(CCCl)CCCl)cc1.Cl
OUTPUT: 222

====

assay: clinical; conditions: human, in vivo, iv, 55 mg, AUCinf, plasma, melflufen HCl 55 mg i.v. over 30 min
Endpoint label: AUC(0-inf) (ng·h/mL)
Lab book: enter the figure in ng·h/mL, no units written.

INPUT: Provide one value: measured AUC(0-inf) of N[C@@H](Cc1ccc(N(CCCl)CCCl)cc1)C(=O)O [melphalan, reference compound]
OUTPUT: 2130

====

assay: clinical; conditions: human, in vivo, iv, 25 mg, Cmax, plasma, melflufen HCl 25 mg i.v. over 30 min
Endpoint label: Cmax (ng/mL)
Lab book: enter the figure in ng/mL, no units written.

INPUT: Provide one value: measured Cmax of N[C@@H](Cc1ccc(N(CCCl)CCCl)cc1)C(=O)O [melphalan, reference compound]
OUTPUT: 562

====

assay: clinical; details: human, in vivo, iv, 15 mg, Cmax
Endpoint label: Cmax (ng/mL)
Lab book: enter the figure in ng/mL, no units written.

INPUT: Provide one value: measured Cmax of CCOC(=O)[C@H](Cc1ccc(F)cc1)NC(=O)[C@@H](N)Cc1ccc(N(CCCl)CCCl)cc1.Cl
OUTPUT: 39

====

experiment: clinical; conditions: human, in vivo, iv, 55 mg, AUCinf
Endpoint label: AUC(0-inf) (ng·h/mL)
Lab book: enter the figure in ng·h/mL, no units written.

INPUT: Provide one value: measured AUC(0-inf) of CCOC(=O)[C@H](Cc1ccc(F)cc1)NC(=O)[C@@H](N)Cc1ccc(N(CCCl)CCCl)cc1.Cl [melflufen]
OUTPUT: 102

====

assay: clinical; settings: human, in vivo, iv, 15 mg, tmax, plasma, melflufen HCl 15 mg i.v. over 30 min
Endpoint label: tmax (min)
Lab book: enter the figure in min, no units written.

INPUT: Provide one value: measured tmax of N[C@@H](Cc1ccc(N(CCCl)CCCl)cc1)C(=O)O [melphalan, reference compound]
OUTPUT: 31

====

assay: clinical; details: human, in vivo, iv, 55 mg, tmax
Endpoint label: tmax (min)
Lab book: enter the figure in min, no units written.

INPUT: Provide one value: measured tmax of CCOC(=O)[C@H](Cc1ccc(F)cc1)NC(=O)[C@@H](N)Cc1ccc(N(CCCl)CCCl)cc1.Cl [melflufen]
OUTPUT: 25

====

experiment: clinical; conditions: human, in vivo, iv, 55 mg, tmax, plasma, melflufen HCl 55 mg i.v. over 30 min
Endpoint label: tmax (min)
Lab book: enter the figure in min, no units written.

INPUT: Provide one value: measured tmax of N[C@@H](Cc1ccc(N(CCCl)CCCl)cc1)C(=O)O [melphalan, reference compound]
OUTPUT: 41
